The compounds below have reported pIC50 for Thymidylate synthase (Mus musculus, UniProt P07607).
pIC50: −log10 of the molar value.
measurementType: pIC50

smilesData: Cc1nc2ccc(CN(CC(N)=O)c3ccc(C(=O)N[C@@H](CCC(=O)O)C(=O)O)c(F)c3)cc2c(=O)[nH]1
reading: 5.87

smilesData: Cc1nc2ccc(CN(C)c3ccc(C(=O)N[C@@H](CCC(=O)O)C(=O)O)c(F)c3)cc2c(=O)[nH]1
reading: 6.92

smilesData: CCN(Cc1ccc2nc(C)[nH]c(=O)c2c1)c1ccc(C(=O)N[C@@H](CCC(=O)O)C(=O)O)c(F)c1
reading: 7.35

smilesData: C#CCN(Cc1ccc2nc(C)[nH]c(=O)c2c1)c1ccc(C(=O)N[C@@H](CCC(=O)O)C(=O)O)c(N)c1
reading: 6.54

smilesData: C=CCN(Cc1ccc2nc(C)[nH]c(=O)c2c1)c1ccc(C(=O)N[C@@H](CCC(=O)O)C(=O)O)cc1F
reading: 5.29

smilesData: Cc1nc2ccc(CN(CCF)c3ccc(C(=O)N[C@@H](CCC(=O)O)C(=O)O)cc3F)cc2c(=O)[nH]1
reading: 5.76

smilesData: CCN(Cc1ccc2nc(C)[nH]c(=O)c2c1)c1ccc(C(=O)N[C@@H](CCC(=O)O)C(=O)O)c(Cl)c1
reading: 6.92

smilesData: Cc1nc2ccc(CN(CCO)c3ccc(C(=O)N[C@@H](CCC(=O)O)C(=O)O)c(F)c3)cc2c(=O)[nH]1
reading: 7.11

smilesData: Cc1nc2ccc(CN(CCO)c3ccc(C(=O)N[C@@H](CCC(=O)O)C(=O)O)cc3F)cc2c(=O)[nH]1
reading: 5.45

smilesData: C#CCN(Cc1ccc2nc(C)[nH]c(=O)c2c1)c1ccc(C(=O)N[C@@H](CCC(=O)O)C(=O)O)c(C)c1
reading: 6.30

smilesData: CCN(Cc1ccc2nc(C)[nH]c(=O)c2c1)c1ccc(C(=O)N[C@@H](CCC(=O)O)C(=O)O)c(OC)c1
reading: 6.72

smilesData: Cc1nc2ccc(CN(C)c3ccc(C(=O)N[C@@H](CCC(=O)O)C(=O)O)c(C)c3)cc2c(=O)[nH]1
reading: 6.03

smilesData: C#CCN(Cc1ccc2nc(C)[nH]c(=O)c2c1)c1ccc(C(=O)N[C@@H](CCC(=O)O)C(=O)O)c(C(F)(F)F)c1
reading: 6.32

smilesData: C#CCN(Cc1ccc2nc(C)[nH]c(=O)c2c1)c1ccc(C(=O)N[C@@H](CCC(=O)O)C(=O)O)c(O)c1
reading: 7.05

----------
The compounds below have reported IC50 for Thymidylate synthase (Mus musculus, UniProt P07607).
measurementType: IC50 (nM)

smilesData: CCN(Cc1ccc2nc(C)[nH]c(=O)c2c1)c1ccc(C(=O)N[C@@H](CCC(=O)O)C(=O)O)c([N+](=O)[O-])c1
measureUnit: nM
reading: 145
//
smilesData: Cc1nc2ccc(CN(C)c3ccc(C(=O)N[C@@H](CCC(=O)O)C(=O)O)c(N)c3)cc2c(=O)[nH]1
measureUnit: nM
reading: 860
//
smilesData: CCN(Cc1ccc2nc(C)[nH]c(=O)c2c1)c1ccc(C(=O)N[C@@H](CCC(=O)O)C(=O)O)c(N)c1
measureUnit: nM
reading: 310
//
smilesData: C#CCN(Cc1ccc2nc(C)[nH]c(=O)c2c1)c1ccc(C(=O)N[C@@H](CCC(=O)O)C(=O)O)c([N+](=O)[O-])c1
measureUnit: nM
reading: 130
